system: EKVX NSCLC; assay: NCI tumour cell line growth inhibition, 48 h; in the data active means GI50 below about 0.43 µM; inactive means the rest
Possible outcomes: active, inactive

- molecule: "COc1ccc(-c2ccc(NNC(=O)c3ccc(F)cc3)nn2)cc1OC"
  subjectOfTest: "EKVX NSCLC"
  labelValue: "inactive"
- molecule: "Cc1noc2c1-c1ccccc1C(c1ccc(Cl)cc1)=N[C@H]2CC(N)=O"
  subjectOfTest: "EKVX NSCLC"
  labelValue: "inactive"
- molecule: "Cn1cc(-c2csc(-c3cn(C)c4ccc(F)cc34)n2)c2cnccc21"
  subjectOfTest: "EKVX NSCLC"
  labelValue: "inactive"
- molecule: "O=C1c2ccccc2C(=O)c2c(NCCN=Cc3ccccc3O)cccc21"
  subjectOfTest: "EKVX NSCLC"
  labelValue: "inactive"
- molecule: "CC(=O)[CH-]C(=O)c1ccccc1.CC(=O)[CH-]C(=O)c1ccccc1.O=S(=O)([O-])c1cc([O-])c2c([O-])cc(S(=O)(=O)[O-])cc2c1.[Na+].[Ti+4]"
  subjectOfTest: "EKVX NSCLC"
  labelValue: "inactive"
- molecule: "O=C(NNc1cnccn1)c1nc2cc(F)ccc2n2cccc12"
  subjectOfTest: "EKVX NSCLC"
  labelValue: "active"
- molecule: "COc1cc(OC)c2sc(-c3ccc(-n4cncc4-c4cc(OC)c(OC)c(OC)c4)cc3)nc2c1"
  subjectOfTest: "EKVX NSCLC"
  labelValue: "inactive"
- molecule: "Clc1nc(Cl)c2ncn(Cc3ccccc3Cn3cnc4c(Cl)nc(Cl)nc43)c2n1"
  subjectOfTest: "EKVX NSCLC"
  labelValue: "inactive"
- molecule: "CCOC(=O)C1=C(N)Oc2c(sc3c(C)cccc23)C1c1ccc(F)cc1 (stereo not given)"
  subjectOfTest: "EKVX NSCLC"
  labelValue: "inactive"
- molecule: "NCCCOc1cc(Cl)ccc1NC(=O)c1cc2ccccc2cc1OCCCN"
  subjectOfTest: "EKVX NSCLC"
  labelValue: "inactive"
